System: ACHN
Assay: NCI tumour cell line growth inhibition, 48 h
Activity calls are given as the source filed them. No stated cut-off is given here; in the data, active = GI50 up to about 1.1 µM and inactive = higher.
Classes used: active, inactive

# COMPOUND, CAT
measured = [
    ("CN(C)CCN(C)c1ccc2c(=O)n(CCN(C)C)c(=O)n3c4ccccc4c(=O)c1c23", "active"),
    ("COc1cc2nc(-c3c(F)cccc3F)n(Cc3c(F)cccc3F)c2cc1Cc1c(F)cccc1F", "inactive"),
    ("CC1=NN(c2cccc(S(=O)(=O)O)c2)C2(C1)C(Cl)C(=O)N2c1nc2ccccc2s1 (stereo not given)", "inactive"),
    ("COc1ccc(CC2c3cc(OC)c(OC)c(OC)c3CC[N+]2(C)C)cc1Oc1ccc(CC2c3cc4c(c(OC)c3CC[N+]2(C)C)OCO4)cc1 (stereo not given)", "inactive"),
    ("O=C(O)CN1C(=O)OC(c2ccccc2)C1=O (stereo not given)", "inactive"),
    ("COCCOc1nc(-c2ccccc2)nc2ccccc12", "inactive"),
    ("COc1ccc(OC)c2c1C=C[C@H](C1(C)SCCS1)C2C(C)=O (stereo not given in full)", "inactive"),
    ("CC(C)(CN1CCCCC1)C(/C=C/c1ccc(Cl)c(Cl)c1)=N\\NC(=O)N/N=C(/C=C/c1ccc(Cl)c(Cl)c1)C(C)(C)CN1CCCCC1", "inactive"),
    ("C[C@H]1CCC2C(CN3CCCCC3)C(=O)OC2[C@]2(C)C(=O)CC(N3CCCCC3)C12O (stereo not given in full)", "inactive"),
    ("CCOC(=O)C1(Cc2ccccc2)Cc2cc3c(cc2C1)CCC3", "inactive"),
]

###

Tested on: MCF7
Assay: NCI tumour cell line growth inhibition, 48 h
Active and inactive are the calls of the source. Rule as the data show it: active = GI50 up to about 1.1 µM and inactive = higher.
Classes used: class 1 for active, class 0 for inactive

# COMPOUND, CAT
data = [
    ("O=C1C(Br)=C(Br)C(=O)c2c(O)ccc(O)c21", "class 0"),
    ("CCCCOC(=O)NC(Nc1ccc(S(N)(=O)=O)cc1)(C(F)(F)F)C(F)(F)F", "class 0"),
    ("c1ccc2c3c(ccc2c1)CSCc1ccc2ccccc2c1-3", "class 0"),
    ("Cc1c(CCCl)c(N=P(c2ccccc2)(c2ccccc2)c2ccccc2)n2c(nc3ccccc32)c1C#N", "class 0"),
    ("O=C(CC(C(=O)c1cccs1)c1cccs1)c1ccsc1 (stereo unspecified)", "class 0"),
    ("C=C1C(C(=O)OC)[C@H]1C(=O)OC (stereo partly specified)", "class 0"),
    ("CC(C)(CN1CCCCC1)C(/C=C/c1ccc(Cl)c(Cl)c1)=N\\NC(=O)N/N=C(/C=C/c1ccc(Cl)c(Cl)c1)C(C)(C)CN1CCCCC1", "class 0"),
    ("COc1c(C)c2nc3ccccc3nc2c2c(O)ccnc12", "class 0"),
    ("O=C(O)CCNc1ncc2c(n1)-c1ccccc1OC2", "class 0"),
    ("Cc1cc(S(=O)(=O)Nc2nc(N)nc(N3CCOCC3)n2)c(SCC(=O)O)cc1Cl", "class 0"),
    ("Nc1nc(Cl)cc(NCC2(CO)COC2)n1", "class 0"),
    ("COc1ccc2c(c1)CCC(CN1CCN(CCOC(c3ccccc3)c3ccccc3)CC1)C2O (stereo unspecified)", "class 0"),
    ("COP(=O)(OC)C(Nc1ccc(Cc2ccc(NC(c3ccco3)P(=O)(OC)OC)cc2)cc1)c1ccco1 (stereo unspecified)", "class 0"),
    ("CC(=O)c1c(O)c(C)c(O)c(Cc2c(O)c3c(c(C(=O)/C=C/c4ccccc4)c2O)OC(C)(C)C=C3)c1O [ROTTLERIN]", "class 0"),
    ("C=CC[N+](CCO)(CCO)CCCCCCCCCCCCCCCCCC", "class 0"),
    ("CC1(C)C[C@H]2C=C(C=O)[C@]34C[C@]3(C(=O)OC4O)[C@H]2C1 (stereo partly specified)", "class 0"),
    ("CC1=CC(=O)/C(=C/NC(=S)NCCc2ccccc2)C(=O)O1", "class 0"),
    ("COc1ccc(C(C)c2cc3c(cc2OC)OCO3)cc1 (stereo unspecified)", "class 1"),
    ("C[C@H](CCC(=O)O)[C@H]1CC[C@H]2[C@@H]3[C@H](O)C[C@@H]4C[C@H](O)CC[C@]4(C)[C@H]3CC[C@]12C [CHENODIOL]", "class 0"),
    ("O=c1cccccc1O [TROPOLONE]", "class 0"),
    ("N=C(N)NC(=N)Nc1ccc(S(N)(=O)=O)cc1", "class 0"),
    ("CSc1nc(-c2ccccc2)nc(C(C#N)C#N)n1", "class 0"),
    ("COc1cc(C2c3cc(OC)c(OC)c(O)c3C(=O)C3CCC(=O)N32)cc(OC)c1OC (stereo unspecified)", "class 0"),
    ("O=C(/C=c1\\oc(=O)/c(=C/C(=O)c2ccc(Cl)cc2)oc1=O)c1ccc(Cl)cc1", "class 0"),
    ("NC(=O)c1cc(-c2ccc(-n3ccnc3)cc2)nnc1O", "class 0"),
    ("O=C1C2=Cc3ccccc3OC2(O)Oc2ccccc21 (stereo unspecified)", "class 0"),
    ("OCC1NC(COC2OC(CO)C(O)C(O)C2O)C(O)C(O)C1O (stereo unspecified)", "class 0"),
    ("Cc1cc2nnc(C(N)=O)c(N)c2cc1C", "class 0"),
    ("O=C1C=C(Cl)C(=O)C(c2ccc(Cl)cc2)=C1", "class 0"),
    ("Cc1ccc(NCC2CC/C(=C\\c3ccc(Cl)cc3)C2=O)cc1 (stereo unspecified)", "class 0"),
    ("Oc1c(CN2CCOCC2)ccc2cccnc12", "class 0"),
    ("CC(C)NCC(O)c1ccc(O)c2ncccc12 (stereo unspecified)", "class 0"),
    ("C=C1C(=O)O[C@@H]2C[C@@H]3[C@]4(CC[C@]5(C)[C@@H]([C@H](C)CC/C=C(\\C)C=O)CC[C@@]35C)C[C@]4(CCC(=O)OC)[C@H]12", "class 0"),
    ("Cc1cc(=O)oc2c(CNC(CC(C)C)C(=O)O)c(O)ccc12 (stereo unspecified)", "class 0"),
    ("O=C(OC1=CCN(Br)C1=O)C1=C(O)C(=O)N(Br)C1", "class 0"),
    ("OC1C2[C@@H](O)CCCN2C[C@@H](O)[C@H]1O (stereo partly specified)", "class 0"),
    ("COc1cc(COC(=O)NC(Cc2cccs2)C(=O)O)c([N+](=O)[O-])cc1OC (stereo unspecified)", "class 0"),
    ("Brc1cccc[n+]1-c1ccc2cc(-[n+]3ccccc3Br)ccc2c1", "class 0"),
    ("COc1ccc(OCc2ccc3nc(-c4ccccc4)c(Cl)nc3c2)cc1", "class 0"),
    ("CC(C)(C)c1cc(C(C)(C)C)c(SS(=O)(=O)O)c(O)c1O", "class 0"),
    ("C=C(C)C12CC(COC(=O)c3ccccc3)C34OC5(OC1C3C1OC1(CO)C(O)C1(O)C(OC(=O)c3ccccc3)C(C)C(C(C)CCCCCCC5O)C14)O2 (stereo unspecified)", "class 0"),
]
